Molecular target: acetylcholine receptor
Test: SPR, AchR immobilised on chip, peptide at 10 uM
PROPERTY_MEASURED: Binding affinity (RU)

KLQSRK [6mer-2-324]    139
KVLLRK [6mer-2-323]    145
RLYLKR [6mer-2-287]    124
KGLRKR [6mer-2-327]    153
RRIQRR [6mer-2-285]    142
KGQRKK [6mer-2-281]    149
KWYRRK [6mer-2-296]    135
RSRQRK [6mer-2-319]    137
KGIRRR [6mer-2-316]    139
KLISKR [6mer-2-283]    148
RGIQKK [6mer-2-318]    145
RQYRRK [6mer-2-320]    148
KRFRRK [6mer-2-333]    139
RVYTKR [6mer-2-329]    142
KLVSRK [6mer-2-321]    139
RWRTKR [6mer-2-313]    154
RRYSRR [6mer-2-322]    148

Numbers sourced from patent US20250011363A1.
